List of pIC50 values.
- assay_system: HDAC6 (Homo sapiens, UniProt Q9UBN7)
- Sequence (Q9UBN7 1-1215): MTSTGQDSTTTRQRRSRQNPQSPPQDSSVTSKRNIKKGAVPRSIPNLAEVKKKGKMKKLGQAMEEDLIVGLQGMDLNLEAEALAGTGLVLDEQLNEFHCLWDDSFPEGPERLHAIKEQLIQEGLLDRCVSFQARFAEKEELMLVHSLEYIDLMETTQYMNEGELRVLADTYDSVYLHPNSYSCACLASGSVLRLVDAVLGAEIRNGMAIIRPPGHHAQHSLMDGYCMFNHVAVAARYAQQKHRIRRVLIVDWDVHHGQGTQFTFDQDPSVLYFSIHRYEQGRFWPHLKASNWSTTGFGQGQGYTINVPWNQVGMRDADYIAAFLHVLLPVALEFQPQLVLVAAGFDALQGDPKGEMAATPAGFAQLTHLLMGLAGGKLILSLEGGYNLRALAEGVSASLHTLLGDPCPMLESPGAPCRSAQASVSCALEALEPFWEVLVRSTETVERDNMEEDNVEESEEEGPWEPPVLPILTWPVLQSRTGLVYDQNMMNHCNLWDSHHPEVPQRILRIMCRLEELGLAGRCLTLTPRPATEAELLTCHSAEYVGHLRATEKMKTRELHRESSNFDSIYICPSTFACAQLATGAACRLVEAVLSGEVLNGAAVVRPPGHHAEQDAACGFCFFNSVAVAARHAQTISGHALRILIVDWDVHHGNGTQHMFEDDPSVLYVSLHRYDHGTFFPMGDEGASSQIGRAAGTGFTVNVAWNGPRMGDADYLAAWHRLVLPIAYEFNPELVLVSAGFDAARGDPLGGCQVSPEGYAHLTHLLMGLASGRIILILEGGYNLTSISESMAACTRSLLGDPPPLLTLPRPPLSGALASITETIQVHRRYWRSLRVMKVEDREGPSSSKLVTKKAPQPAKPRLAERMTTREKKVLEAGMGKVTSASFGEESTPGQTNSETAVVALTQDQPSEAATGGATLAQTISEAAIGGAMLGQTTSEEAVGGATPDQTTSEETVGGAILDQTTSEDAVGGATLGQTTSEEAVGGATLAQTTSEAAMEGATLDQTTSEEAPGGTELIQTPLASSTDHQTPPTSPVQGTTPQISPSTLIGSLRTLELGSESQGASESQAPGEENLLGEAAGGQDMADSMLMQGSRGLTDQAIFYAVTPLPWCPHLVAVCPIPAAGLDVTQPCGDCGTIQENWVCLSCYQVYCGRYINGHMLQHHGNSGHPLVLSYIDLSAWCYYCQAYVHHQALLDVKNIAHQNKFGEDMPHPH
- experimental_details: HDAC6 protease-coupled fluorescence (AMC) inhibition assay
- Type: biochemical
- assay_setup: hr enzyme, 10-dose, 3-fold dilution from 50 μM (3: from 300 μM); read-out: IC50 against HDAC6
pIC50: −log10 of the molar value.
quantity_measured: pIC50

compound_structure=Cn1c(/C=C/C(=O)NO)ccc1/C=C/C(=O)c1cccc(Cl)c1 assay_system="HDAC6 (Homo sapiens, UniProt Q9UBN7)" quantity_measured=pIC50 reading=5.21
compound_structure=CN(C)Cc1ccc(S(=O)(=O)n2ccc3cc(/C=C/C(=O)NO)ccc32)cc1 assay_system="HDAC6 (Homo sapiens, UniProt Q9UBN7)" quantity_measured=pIC50 reading=7.74
compound_structure=O=C(/C=C/c1ccc(CSc2nc(Cl)cc(-c3ccccc3)n2)cc1)NO assay_system="HDAC6 (Homo sapiens, UniProt Q9UBN7)" quantity_measured=pIC50 reading=6.92
